Experiment summary: APR_HepG2_P-H2AX_24hr: Apredica 24-hour HepG2 Assay for H2AX Phosphorylation (AID 2282920)
Condition parameters: high-content imaging, actives raise or lower the signal
Active and inactive are the calls of the source. The calls were made as follows: active = hit-call score of the fitted dose curve at least 0.9, where 1 is the maximum; inactive = score below 0.9.
Possible outcomes: 1 (yes) for active, 0 (no) for inactive

- Compound: "CCC(C)(C)C(=O)OC1=C(c2ccc(Cl)cc2Cl)C(=O)OC12CCCCC2"
  Category: "0 (no)"
- Compound: "CC(C)OC(=O)Nc1cccc(Cl)c1"
  Category: "0 (no)"
- Compound: "O=S1OCC2C(CO1)C1(Cl)C(Cl)=C(Cl)C2(Cl)C1(Cl)Cl (stereo not given)"
  Category: "0 (no)"
- Compound: "CCS(=O)(=O)c1cccnc1S(=O)(=O)NC(=O)Nc1nc(OC)cc(OC)n1"
  Category: "0 (no)"
- Compound: "COC(=O)c1ccccc1CS(=O)(=O)NC(=O)Nc1nc(OC)cc(OC)n1"
  Category: "0 (no)"
- Compound: "OCCOc1ccccc1"
  Category: "0 (no)"
- Compound: "O=[N+]([O-])/N=C1\\NCCN1Cc1ccc(Cl)nc1"
  Category: "0 (no)"
- Compound: "CC(C)(C)C(O)C(Oc1ccc(Cl)cc1)n1cncn1 (stereo not given)"
  Category: "0 (no)"
- Compound: "CNC(=O)/C=C(\\C)OP(=O)(OC)OC"
  Category: "0 (no)"
- Compound: "N#Cc1c(Cl)c(Cl)c(Cl)c(C#N)c1Cl"
  Category: "1 (yes)"

Where these numbers come from: PubChem BioAssay (EPA / NIEHS)
